This collection of values is drawn from patent US4603198A.

experiment: acute toxicity in mice (i.v.); settings: mouse, in vivo, iv
Where a name gives a salt, the structure may show the parent alone.
Task for the reader: assign each of the following molecules its reported LD50.

The value of LD50 measured for the molecule Nc1nc(/C(=N/OCc2c[nH]cn2)C(=O)N[C@@H]2C(=O)N3C(C(=O)[O-])=C(C[n+]4ccccc4)CS[C@H]23)cs1 [IA, trihydrochloride] turned out to be > 2500 mg/kg

Entry `Nc1nc(/C(=N/OCc2cc[nH]n2)C(=O)N[C@@H]2C(=O)N3C(C(=O)[O-])=C(C[n+]4ccccc4)CS[C@H]23)cs1` , LD50 reported as > 2000 mg/kg
